- Experiment Summary: Microsomal clearance assay (M)
- Measurement Parameters: intrinsic clearance in rat liver microsomes
Reported Assay M RLM CI(int) values are given for each entry in this list.

Record excerpt, results attached:
Cc1ccc(S(=O)(=O)N2CC(F)(F)C2)cc1-c1cnc(N)c(-n2cncn2)n1 ... 85 µL/min/mg
Cc1ccc(S(=O)(=O)N[C@H]2CC[C@H](O)CC2)cc1-c1cnc(N)c(-n2cncn2)n1 ... 24 µL/min/mg

Ask: Tell me measured Assay M RLM CI(int) for Cc1ccc(S(=O)(=O)N2CCC(F)CC2)cc1-c1cnc(N)c(-n2cncn2)n1 please.
Result: 641 µL/min/mg

Ask: Tell me measured Assay M RLM CI(int) for Cc1ccc(S(=O)(=O)NCC(C)(C)O)cc1-c1cnc(N)c(-c2nc(C3CC3)no2)n1 please.
Result: 53 µL/min/mg
